target: hBGT1 wt (Homo sapiens, UniProt P48065); construct: expressed in transfected cells; host or cells: tsA201 cells, transient (PolyFect), pcDNA5/FRT vector; assay: [3H]GABA uptake inhibition at wt hBGT1 transiently expressed in tsA201 cells; type: cell-based; settings: 30 nM [3H]GABA, tsA201 cells transiently expressing wt hBGT1; read-out: pIC50 ± S.E.M. BGT1 wt (converted)
Sequence (P48065 whole entry): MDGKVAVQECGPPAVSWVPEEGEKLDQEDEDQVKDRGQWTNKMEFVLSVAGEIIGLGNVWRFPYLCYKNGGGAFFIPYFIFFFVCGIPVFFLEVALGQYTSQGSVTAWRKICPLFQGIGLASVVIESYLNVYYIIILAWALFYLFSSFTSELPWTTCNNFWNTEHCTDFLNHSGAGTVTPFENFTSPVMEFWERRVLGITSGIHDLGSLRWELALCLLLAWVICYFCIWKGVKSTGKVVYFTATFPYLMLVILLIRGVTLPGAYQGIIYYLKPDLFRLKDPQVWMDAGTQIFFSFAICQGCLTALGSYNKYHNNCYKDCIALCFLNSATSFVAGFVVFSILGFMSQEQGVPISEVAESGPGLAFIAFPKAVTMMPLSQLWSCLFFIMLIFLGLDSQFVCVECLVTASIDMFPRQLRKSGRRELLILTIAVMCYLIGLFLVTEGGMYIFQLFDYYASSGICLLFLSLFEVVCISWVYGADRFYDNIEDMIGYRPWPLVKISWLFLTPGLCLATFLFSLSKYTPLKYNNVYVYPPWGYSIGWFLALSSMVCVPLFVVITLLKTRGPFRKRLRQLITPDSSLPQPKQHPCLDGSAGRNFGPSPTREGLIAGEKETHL
observation_type: IC50

IC50 measured on NC1=NCC(C(=O)O)CN1 (stereo not drawn) [ATPCA, reference compound] = 10.5 µM

Noted for C[C@@H]1N=C(N)NC[C@@H]1C(=O)O (single isomer, unassigned) [l-15a] : its IC50 reads 20.9 µM

IC50 measured on Cl.NC1=NCC(C(=O)O)CN1Cc1ccccc1 (stereo not drawn) [compound 4] = 324 µM

Recorded IC50 (compound CCN1CC(C(=O)O)CN=C1N.Cl (stereo not drawn) [compound 3] ): 398 µM

IC50 recorded for this compound, Cc1ccsc1C(=CCCN1CC(C(=O)O)CN=C1N)c1sccc1C (stereo not drawn) [compound 8] , is 631 µM

According to the records, this compound NC1=NCC(C(=O)O)CC1 (stereo not drawn) [compound 2, reference compound] displays IC50 of 51.3 µM
